All figures here come from the supplement of paper PMC9233669.

Exercise: state measured self-aminoacylation for each of the sequences provided.
# Tested on: biotinyl-Trp-oxazolone
# measurement.notes: self-aminoacylation, catalytic enhancement (BWO) (fold over background); higher = more active; k-Seq, kA / k0A0; sequences stand for … in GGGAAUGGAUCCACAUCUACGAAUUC…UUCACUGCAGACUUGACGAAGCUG
Fewer inactive variants are shown than the library holds.
Numbers only.

Worked set:
{"seq": "CUACUGCAAACAACCGGUCUG [Fam1A.1 aminoacylation ribozyme variant]", "self-aminoacylation": 0.804}
{"seq": "CCGCACUUCAACCAAUCGGUC [Fam1B.1 aminoacylation ribozyme variant]", "self-aminoacylation": 67.5}
{"seq": "AUUUCCCUGGUCAACGAGUGA [Fam2.1 aminoacylation ribozyme variant]", "self-aminoacylation": 8.23}
{"seq": "AUUCACUUAGGUCAUCUGGUG [Fam2.2 aminoacylation ribozyme variant]", "self-aminoacylation": 3.19}
{"seq": "AUGUUUGCUAAUAGUCGAAAG [Fam3.1 aminoacylation ribozyme variant]", "self-aminoacylation": 2.94}

List self-aminoacylation for every entry below, keeping the order given.
1. CCACUUCAAACAAUCGGUCUU [Fam1A.1 aminoacylation ribozyme variant]
2. AUUACCCUGCUCAUCGUGUGA [Fam2.1 aminoacylation ribozyme variant]
3. CCACACUUCAAGCAAUUGAUC [Fam1B.1 aminoacylation ribozyme variant]
4. AAGAUUGCUUAUAGUCGCAAG [Fam3.1 aminoacylation ribozyme variant]

Result:
1. 25.2
2. 3.19
3. 0.518
4. 2.35

List self-aminoacylation for every entry below, keeping the order given.
1. CUACUUCAAAUACUCGGUCUG [Fam1A.1 aminoacylation ribozyme variant]
2. AUCCACCUAGGUCAUCGGGGG [Fam2.2 aminoacylation ribozyme variant]
3. AUUCACCAAGGUCUUCGGGUG [Fam2.2 aminoacylation ribozyme variant]
4. AUUAUCCUGGUCAUAGAGUGA [Fam2.1 aminoacylation ribozyme variant]
5. AAGUUUGCUAAAAGUCGCUAG [Fam3.1 aminoacylation ribozyme variant]
6. AUUACCCUGCUCAUCGAGUCA [Fam2.1 aminoacylation ribozyme variant]

Result:
1: 0.71; 2: 4.13; 3: 4.45; 4: 11.7; 5: 0.783; 6: 0.425

List self-aminoacylation for every entry below, keeping the order given.
1. AAUACCCUGGUCAUCGAGCGA [Fam2.1 aminoacylation ribozyme variant]
2. AAGUUUGCUAUGAGUCGCAAG [Fam3.1 aminoacylation ribozyme variant]
3. AUUCAUCUAGGUCGUCGGGUG [Fam2.2 aminoacylation ribozyme variant]

Result:
[2.75, 0.54, 1.68]

====

Exercise: state measured self-aminoacylation for each of the sequences provided.
# Test system: biotinyl-Ile-oxazolone
# measurement.notes: self-aminoacylation, catalytic enhancement (BIO) (fold over background); higher = more active; k-Seq, kA / k0A0; sequences stand for … in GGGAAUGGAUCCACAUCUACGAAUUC…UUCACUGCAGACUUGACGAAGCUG
Fewer inactive variants are shown than the library holds.
Numbers only.

Worked set:
{"seq": "CCACACUUCAUGCAAUCGGCC [Fam1B.1 aminoacylation ribozyme variant]", "experimental.target": "biotinyl-Ile-oxazolone", "self-aminoacylation": 2.44}
{"seq": "CGACUUCAAACAAUCGGUCAG [Fam1A.1 aminoacylation ribozyme variant]", "experimental.target": "biotinyl-Ile-oxazolone", "self-aminoacylation": 0.915}
{"seq": "AAGUCUGCUAAUAGUCUCAAG [Fam3.1 aminoacylation ribozyme variant]", "experimental.target": "biotinyl-Ile-oxazolone", "self-aminoacylation": 1.14}
{"seq": "AUUCAACUAGGUCAUCGCGUG [Fam2.2 aminoacylation ribozyme variant]", "experimental.target": "biotinyl-Ile-oxazolone", "self-aminoacylation": 5.91}
{"seq": "ACUCACCUAGGUUAUCGGGUG [Fam2.2 aminoacylation ribozyme variant]", "experimental.target": "biotinyl-Ile-oxazolone", "self-aminoacylation": 4.89}

List self-aminoacylation for every entry below, keeping the order given.
1. AAGUUCGCUAAUAGUCGGAAG [Fam3.1 aminoacylation ribozyme variant]
2. CUACUUCAAAGAAUCAGUCUG [Fam1A.1 aminoacylation ribozyme variant]
3. CUACAUCAAACAACCGGUCUG [Fam1A.1 aminoacylation ribozyme variant]
4. AUAACCCUGGUCACCGAGUGA [Fam2.1 aminoacylation ribozyme variant]
5. AAUACCCUAGUCAUCGAGUGA [Fam2.1 aminoacylation ribozyme variant]
6. AAGGCUGCUAAUAGUCGCAAG [Fam3.1 aminoacylation ribozyme variant]

Result:
1: 1.2; 2: 0.759; 3: 0.885; 4: 4.78; 5: 2.46; 6: 1.73
